- EXPERIMENTAL_TARGET: T1, EsCas13d, nuclease-dead (Eubacterium siraeum, UniProt B0MS50, R295A;H300A;R849A;H854A)
- T1 sequence: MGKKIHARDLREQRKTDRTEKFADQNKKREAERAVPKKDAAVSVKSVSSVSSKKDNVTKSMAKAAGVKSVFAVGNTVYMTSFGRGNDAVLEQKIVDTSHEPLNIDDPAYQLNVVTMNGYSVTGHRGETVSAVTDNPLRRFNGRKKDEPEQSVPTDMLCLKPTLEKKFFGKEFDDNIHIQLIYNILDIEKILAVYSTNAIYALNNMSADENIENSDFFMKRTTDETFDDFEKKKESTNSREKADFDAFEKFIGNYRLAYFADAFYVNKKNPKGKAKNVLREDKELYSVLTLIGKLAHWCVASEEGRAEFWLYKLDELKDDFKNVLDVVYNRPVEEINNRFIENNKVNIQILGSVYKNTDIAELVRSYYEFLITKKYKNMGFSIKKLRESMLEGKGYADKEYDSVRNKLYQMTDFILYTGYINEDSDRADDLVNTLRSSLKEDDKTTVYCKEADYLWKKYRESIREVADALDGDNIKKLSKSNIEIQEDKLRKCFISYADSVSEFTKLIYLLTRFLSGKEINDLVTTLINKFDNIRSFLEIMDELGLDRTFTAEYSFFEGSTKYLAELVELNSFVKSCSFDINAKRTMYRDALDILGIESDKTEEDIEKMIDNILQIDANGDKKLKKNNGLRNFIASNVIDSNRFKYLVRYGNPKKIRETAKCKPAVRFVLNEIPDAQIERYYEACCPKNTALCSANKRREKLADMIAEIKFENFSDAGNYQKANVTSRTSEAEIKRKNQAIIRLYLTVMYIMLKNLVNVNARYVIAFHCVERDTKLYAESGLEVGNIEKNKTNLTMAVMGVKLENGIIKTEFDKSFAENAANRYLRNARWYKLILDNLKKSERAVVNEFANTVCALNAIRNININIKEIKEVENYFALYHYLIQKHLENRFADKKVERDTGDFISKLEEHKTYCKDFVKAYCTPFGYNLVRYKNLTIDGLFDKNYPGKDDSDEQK
- ASSAY_DETAILS: crRNA (strand 1, pre-loaded); Mg2+; 40 mM Tris-HCl pH 7.5, 150 mM NaCl, 6 mM MgCl2, 1 mM DTT, 0.1% Tween-20, 0.2 mg/ml BSA; 25 C; 10 min per concentration, then washed
- CONDITION_NOTES: tags: His6-TwinStrep-SUMO cleaved; N-terminal SNAP kept (SNAP-Surface 488); label: 3' end held by stalled T7 RNA polymerase
VALUE_TYPE: log10 Kd (log10 of the value in nM)
The base-10 logarithm of Kd, taken with Kd in nM, is what appears here.

target 1 MT 5'PFS UCG 3'PFS CUA (mixed) RNA 1: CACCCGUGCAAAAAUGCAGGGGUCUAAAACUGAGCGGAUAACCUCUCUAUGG RNA 2: GGGAAUGGAUCCACAUCUACGAAUUCUCGCCAUAGAGAGGUUAUCCGCUCACUAAGAUCGGAAGAGCACACGU
1.46

Looking for the measured log10 Kd of target 2 MT 5'PFS GGU 3'PFS CAU (mixed) RNA 1: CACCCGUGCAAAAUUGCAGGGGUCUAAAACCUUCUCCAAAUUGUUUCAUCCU RNA 2: GGGAAUGGAUCCACAUCUACGAAUUCGGUAGGAUGAAACAAUUUGGAGAAGCAUAGAUCGGAAGAGCACACGU , can you help?
1.17

Same for target 1 complement block 2-12 (mixed) RNA 1: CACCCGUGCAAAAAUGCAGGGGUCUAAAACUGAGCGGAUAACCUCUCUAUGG RNA 2: GGGAAUGGAUCCACAUCUACGAAUUCGUACCAUAGAGAGCAAUAGGCGAGACCGAGAUCGGAAGAGCACACGU
1.37

Same for target 2 MT 5'PFS AGG 3'PFS CUU (mixed) RNA 1: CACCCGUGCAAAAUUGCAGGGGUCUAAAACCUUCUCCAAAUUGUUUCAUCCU RNA 2: GGGAAUGGAUCCACAUCUACGAAUUCAGGAGGAUGAAACAAUUUGGAGAAGCUUAGAUCGGAAGAGCACACGU
0.86

Same for target 1 insG 3' of 10,insC 3' of 1 (mixed) RNA 1: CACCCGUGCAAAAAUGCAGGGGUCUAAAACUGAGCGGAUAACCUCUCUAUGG RNA 2: GGGAAUGGAUCCACAUCUACGAAUUCGUACCAUAGAGAGGUUGAUCCGCUCACCCGAGAUCGGAAGAGCACACGU
1.43

Same for target 1 G12U,A18C (mixed) RNA 1: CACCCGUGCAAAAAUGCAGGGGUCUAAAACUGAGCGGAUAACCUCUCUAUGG RNA 2: GGGAAUGGAUCCACAUCUACGAAUUCGUACCAUCGAGAGUUUAUCCGCUCACCGAGAUCGGAAGAGCACACGU
1.60

Same for target 1 insU 3' of 20,insG 3' of 2 (mixed) RNA 1: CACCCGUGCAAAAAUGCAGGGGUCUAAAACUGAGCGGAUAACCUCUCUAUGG RNA 2: GGGAAUGGAUCCACAUCUACGAAUUCGUACCAUUAGAGAGGUUAUCCGCUCGACCGAGAUCGGAAGAGCACACGU
1.07

Same for target 1 del4,del9 (mixed) RNA 1: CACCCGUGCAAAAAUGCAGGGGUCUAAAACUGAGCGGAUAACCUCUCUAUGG RNA 2: GGGAAUGGAUCCACAUCUACGAAUUCGUACCAUAGAGAGGUUUCCGUCACCGAGAUCGGAAGAGCACACGU
1.89

meta.source: paper PMC10786891
